Sourced from PubChem BioAssay AID493056

# System: Thyrotropin-releasing hormone receptor (Homo sapiens)
# Test Details: qHTS for Small Molecule Agonists and Allosteric Enhancers of Human TRH Receptor: Primary Screen for Enhancers; further: 0% is about no effect
# Run Parameters: TRHR cells, fluo-8 calcium fluorescence, EC20 TRH enhancement; at 2 µM
In all, about 360,000 compounds went through this assay and about 2,400 (0.67%) were called active. No stated cut-off is given here; in the data, active means enhancement above about 30%; inactive means the rest. For the sample, actives were picked, then their nearest neighbours and some compounds at random.
Outcomes: active, inactive

>>> category_label("Cc1ccc(C2CCN(C(=O)c3cnn(-c4ccccc4Cl)c3C3CCN(C(=O)OC(C)(C)C)CC3)C2)cc1 (stereo unspecified)")
"inactive"
>>> category_label("CN(C(=O)CSc1nnc(Nc2ccccc2)s1)C1CCS(=O)(=O)C1 (stereo unspecified)")
"active"
>>> category_label("COc1ccc(NC(=O)C2CCCN(S(=O)(=O)c3cccc4nonc34)C2)cc1Cl (stereo unspecified)")
"inactive"
>>> category_label("COc1ccc(C2(O)C(=O)Nc3ccccc32)cc1 (stereo unspecified)")
"inactive"
>>> category_label("O=C(Nc1ccccc1)c1ccccc1NC(=O)C(F)(F)F")
"inactive"
>>> category_label("O=C(CN1CCN(c2ncccn2)CC1)Nc1ccccc1C(F)(F)F")
"inactive"
>>> category_label("CCc1ccc(NC(=O)CSc2nc3c([nH]c4ccccc43)c(=O)n2-c2cccc(OC)c2)cc1")
"inactive"
>>> category_label("CCn1c(SCC(=O)N(C)C2CCS(=O)(=O)C2)nnc1-c1cccs1 (stereo unspecified)")
"inactive"
>>> category_label("CCc1ccc(NC(=O)N2CCN(C(=O)c3nsc4ccccc34)CC2)cc1")
"inactive"
>>> category_label("COc1ccc(C2(C)NC(=O)N(CC(=O)c3ccc4c(c3)OCO4)C2=O)cc1 (stereo unspecified)")
"inactive"
>>> category_label("Cc1ccc(O)c(NC(=O)c2cc(-c3ccc(F)cc3)no2)c1")
"inactive"
>>> category_label("Cc1cccc(Cn2c(CN3CCC(C(=O)NCc4ccccc4Cl)CC3)cc3ccccc32)c1")
"inactive"
>>> category_label("COc1cc(OC)c(NC(=O)c2c3c(nn2C)-c2ccccc2SC3)cc1Cl")
"inactive"
>>> category_label("CC(NC(=O)c1ccc(N2CCNCC2)c([N+](=O)[O-])c1)C12CC3CC(CC(C3)C1)C2 (stereo unspecified)")
"active"
>>> category_label("CCC(C)NC(=O)c1ccc(N2CCC3(CC2)OCCO3)c([N+](=O)[O-])c1 (stereo unspecified)")
"inactive"
>>> category_label("CCc1ccc(Sc2cc(C(=O)NCCCOC(C)C)c3ccccc3n2)cc1")
"inactive"

====

# System: Thyrotropin-releasing hormone receptor (Homo sapiens)
# Test Details: qHTS for Small Molecule Agonists and Allosteric Enhancers of Human TRH Receptor: Primary Screen for Enhancers; further: 0% is about no effect
# Run Parameters: TRHR cells, fluo-8 calcium fluorescence, EC20 TRH enhancement; at 2 µM
The campaign covered roughly 360,000 compounds. About 2,400 (0.67%) were called active. Rule as the data show it: active = enhancement above about 30%; inactive = the rest. What follows is part of a selection rich in actives, with near analogues and random picks from the rest.
Classes used: active, inactive

>>> category_label("COc1ccc(C(=O)COC(=O)CNC(=O)c2cccs2)cc1Br")
"inactive"
>>> category_label("COc1ccc(NC(=O)CSc2nc3ccccc3[nH]2)cc1")
"active"
>>> category_label("CCOC(=O)c1cc(-c2ccccc2)n(CCC(=O)Nc2ccccc2CC)c1C")
"inactive"
>>> category_label("CCOc1ccc(N(CC)C(=O)c2cc3c(=O)oc4ccccc4c3s2)cc1")
"inactive"
>>> category_label("CCOCCCNC(=O)c1c(NC(=O)Cc2coc3ccc(C)cc23)sc2c1CCC2")
"inactive"
>>> category_label("CCOc1ccc(C(C)=O)cc1COC(=O)c1cnc(Cl)c(Cl)c1")
"inactive"
>>> category_label("COc1ccc(Cc2nc3ccc(C(=O)NCc4ccccc4Cl)cc3o2)cc1")
"inactive"
>>> category_label("COc1ccc(NC(=O)CSc2ncnc3[nH]ncc23)cc1")
"inactive"
>>> category_label("NS(=O)(=O)c1cccc(NC(=O)CSc2nc3ccccc3n2-c2ccccc2)c1")
"active"
>>> category_label("COc1ccc(Nc2cc(=O)n(-c3ccccc3)c3c2c(=O)n(C)c(=O)n3C)cc1")
"inactive"
>>> category_label("COc1ccc(-n2cnnc2SCC(=O)Nc2cccc(S(N)(=O)=O)c2)cc1")
"inactive"
>>> category_label("COc1ccc(-c2c3c(=O)n(C)c(=O)n(C)c3c3c(C)nc4ccccc4n23)cc1")
"inactive"
>>> category_label("COC(=O)c1c(NC(=O)C(C)Oc2ccc(Cl)c(C)c2)sc(C)c1C (stereo not given)")
"inactive"
>>> category_label("Cc1cccn2c(=O)c3cc(C(=O)NC4CCCCC4)sc3nc12")
"active"
>>> category_label("Cc1nnc(SCC(=O)Nc2cccc(N)c2)n1-c1ccccc1")
"inactive"

====

# System: Thyrotropin-releasing hormone receptor (Homo sapiens) (UniProt P34981)
# Sequence (P34981 whole entry, looked up): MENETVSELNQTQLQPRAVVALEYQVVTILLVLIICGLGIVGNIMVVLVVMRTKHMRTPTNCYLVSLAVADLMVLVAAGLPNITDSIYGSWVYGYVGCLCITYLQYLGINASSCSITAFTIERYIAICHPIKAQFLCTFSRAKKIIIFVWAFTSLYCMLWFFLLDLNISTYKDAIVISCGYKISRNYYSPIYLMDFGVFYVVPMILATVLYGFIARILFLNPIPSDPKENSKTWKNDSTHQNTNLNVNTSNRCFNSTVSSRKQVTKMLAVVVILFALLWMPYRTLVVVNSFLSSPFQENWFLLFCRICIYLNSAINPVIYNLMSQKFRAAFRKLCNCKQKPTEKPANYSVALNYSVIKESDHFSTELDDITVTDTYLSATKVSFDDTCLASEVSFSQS
# Test Details: qHTS for Small Molecule Agonists and Allosteric Enhancers of Human TRH Receptor: Primary Screen for Enhancers; further: 0% is about no effect
# Run Parameters: TRHR cells, fluo-8 calcium fluorescence, EC20 TRH enhancement; at 2 µM
Out of some 360,000 compounds screened, about 2,400 (0.67%) were called active. Rule as the data show it: active = enhancement above about 30%; inactive = the rest. For the sample, actives were picked, then their nearest neighbours and some compounds at random.
Labels: T = active, F = inactive

>>> category_label("O=S(=O)(c1ccc2c(c1)OCCCO2)N1CCN(S(=O)(=O)c2c(F)cccc2F)CC1")
"F"
>>> category_label("CC(C)(C)OC(=O)N1CCC(c2c(C(=O)N3CCN(c4cccc(Cl)c4)CC3)cnn2-c2cccc(Cl)c2)CC1")
"F"
>>> category_label("COc1ccc(CNC(=O)c2cc3cccc(OC)c3oc2=O)cc1")
"F"
>>> category_label("COn1c(-c2ccc(Cl)cc2Cl)nc2ncccc21")
"T"
>>> category_label("O=C(Nc1ncccn1)c1cccs1")
"T"
>>> category_label("CCOc1ccc(CNC(=O)c2ccc3nc(CC)c(CC)nc3c2)cc1OC")
"F"
>>> category_label("CCOc1ccc(NC(=O)COc2ccc(C(=O)N3CCC(C(N)=O)CC3)cc2OC)cc1")
"F"
>>> category_label("CC(=O)c1ccc(N2CCN(C3C(=O)c4ccccc4N3C(C)=O)CC2)cc1 (stereo unspecified)")
"F"
>>> category_label("Cc1ccc2oc3c(c(=O)c2c1)C(c1ccc([N+](=O)[O-])cc1)N(CCCN1CCOCC1)C3=O (stereo unspecified)")
"F"
>>> category_label("Cc1cccc(-c2nc(SCC(=O)Nc3cc(C)on3)c3c(=O)n(C)c(=O)n(C)c3n2)c1")
"F"
>>> category_label("Cc1cc(C)c2oc(C(=O)Nc3ccc(S(=O)(=O)N(C)c4ccccc4)cc3)cc(=O)c2c1")
"F"
>>> category_label("Clc1ccc(COn2c(-c3ccc(Cl)cc3Cl)nc3ncccc32)cc1")
"F"
>>> category_label("Cc1ccc(-c2nc(SCc3ccc(Br)cc3)n3[nH]c(=O)cc3n2)cc1")
"F"
>>> category_label("O=C(CSc1cn(CC(=O)N2CCOCC2)c2ccccc12)Nc1ccccc1")
"F"
>>> category_label("COc1cccc(CN(C)CC(=O)Nc2sc3c(c2C#N)CCC3)c1")
"T"
>>> category_label("CSc1nc(=O)c2c(n1C)NC(=O)CC2c1ccccc1OC(C)C (stereo unspecified)")
"F"
>>> category_label("CN1CCN(c2oc(-c3ccc(COc4ccc(Cl)cc4)o3)nc2C#N)CC1")
"F"
>>> category_label("COCC(C)NS(=O)(=O)c1ccc(N2CCCCS2(=O)=O)cc1 (stereo unspecified)")
"F"
>>> category_label("COc1cccc(CN(C)CC(=O)Nc2ccccc2C(=O)Nc2ccccc2)c1")
"F"
>>> category_label("Cn1c(=O)c2c(ncn2CC(=O)Nc2cccc(C(F)(F)F)c2)n(C)c1=O")
"F"
>>> category_label("CCCCn1c(=N)c(S(=O)(=O)c2ccccc2)cc2c(=O)n3cccc(C)c3nc21")
"F"
>>> category_label("CCCC(=O)Nc1ccc(NC(=O)c2sc3ccccc3c2Cl)cc1")
"F"
>>> category_label("CCC(C)NC(=O)c1ccc(NC(=O)CC2SC(N3CCCCC3)=NC2=O)cc1 (stereo unspecified)")
"F"
>>> category_label("COc1ccccc1Nc1c2c(nc3ccc(NC(=O)/C=C/c4cc(OC)c(OC)c(OC)c4)cc13)CCCC2")
"F"
>>> category_label("COc1ccc(C2CC(=O)Nc3c2c(=O)nc2c(C)cccn32)cc1OC (stereo unspecified)")
"F"
>>> category_label("COc1ccc(Cl)cc1NC(=O)CN(C)Cc1ccc(OC)c(OC)c1")
"T"

====

# System: Thyrotropin-releasing hormone receptor (Homo sapiens)
# Test Details: qHTS for Small Molecule Agonists and Allosteric Enhancers of Human TRH Receptor: Primary Screen for Enhancers; further: 0% is about no effect
# Run Parameters: TRHR cells, fluo-8 calcium fluorescence, EC20 TRH enhancement; at 2 µM; active compounds read high
About 2,400 (0.67%) of roughly 360,000 compounds were called active. The sample holds actives, similar compounds and a random draw of the others, so the mix is not that of the screen.
Endpoint: enhancement (%)

>>> experimental_result("CC1COc2ccccc2N1C(=O)c1cccnc1Cl (configuration not stated)")
30.7
>>> experimental_result("CCNC(=O)c1ccc(OCC(=O)Nc2ccc(F)cc2)c(OC)c1")
13.5
>>> experimental_result("O=c1[nH]n2c(=O)c3c([nH]c2c1N=Nc1ccccc1)CCC3")
31.1
>>> experimental_result("CCC(CC)c1nnc(NC(=O)c2nn(C)c(=O)c3ccccc23)s1")
6.49
>>> experimental_result("CCCCNC(=O)C1CCCN(c2nnc(C)c3c(C)n(-c4ccc(Cl)cc4)nc23)C1 (configuration not stated)")
-2.23
>>> experimental_result("CCOc1ncccc1C(=O)OCC(=O)NC1CC1")
6.62
>>> experimental_result("O=S(=O)(c1ccc(Br)cc1)c1nc(-c2ccccc2)oc1NCc1cccnc1")
31.2
>>> experimental_result("Cc1cc(-c2ccc(C)c(S(=O)(=O)N3c4ccccc4CC3C)c2)on1 (configuration not stated)")
0.217
>>> experimental_result("Cc1cccc(NC(=O)CSc2ncc(-c3ccccc3)[nH]2)c1C")
-2.76
>>> experimental_result("Cc1sc(NC(=O)C2=COCCO2)c(C#N)c1C")
2.25
>>> experimental_result("CCOC(=O)c1cc(NC(=O)c2ccc(F)cc2)c(=O)n2c1oc1ccccc12")
-6.78
>>> experimental_result("CC1COc2ccccc2N1S(=O)(=O)c1ccccc1 (configuration not stated)")
-5.39
>>> experimental_result("CCCN(CCC)CCNC(=O)c1ccc2c(c1)NC(=O)C(CS(=O)(=O)Cc1cccc(Br)c1)N2 (configuration not stated)")
5.05
>>> experimental_result("CN1CCOc2cc(S(=O)(=O)N3CCN(S(=O)(=O)c4c(F)cccc4F)CC3)cnc21")
-0.823
>>> experimental_result("O=C(NCc1ccccc1)C1CCCN(S(=O)(=O)c2cccs2)C1 (configuration not stated)")
4.34
>>> experimental_result("COc1ccc(C2COC(=O)C2=N)c(NC(=O)c2ccccc2)c1 (configuration not stated)")
-7.29
>>> experimental_result("Cc1ccc(S(=O)(=O)c2nc(-c3cccs3)oc2NCc2cccnc2)cc1")
-3.44
>>> experimental_result("CCOc1ncccc1C(=O)OCC(=O)N1c2ccccc2CC1C (configuration not stated)")
156
>>> experimental_result("CCOC(=O)c1[nH]c(C)c(C(=O)OCC(=O)N2c3ccccc3CC2C)c1C (configuration not stated)")
-0.269
>>> experimental_result("CCCn1c(C2CCCN2c2nc(-c3ccc(OC)cc3)cs2)nc2ccccc21 (configuration not stated)")
-1.81
>>> experimental_result("CCC(CC)c1nnc(NC(=O)C2=COCCO2)s1")
36.4
>>> experimental_result("CCCC(=O)C1=C(N(C)c2ccccc2)CC(C)(C)C(C(=O)OC)C1=O (configuration not stated)")
36.8
>>> experimental_result("COc1ccc(-c2csc(-c3c(N)c(C(=O)c4ccc(OC)c(OC)c4)n4ccccc34)n2)cc1")
0.214
>>> experimental_result("Cc1ccc(SCC(=O)Nc2ccc3oc(-c4ccccc4F)nc3c2)cc1")
-1.22
>>> experimental_result("CCOC(=O)CSc1nc(N2CCOCC2)c2c(c1C#N)CC(C(C)C)OC2 (configuration not stated)")
-9.38
>>> experimental_result("COc1cccc(-n2ccn(CC(=O)NCc3ccc(C)cc3)c(=O)c2=O)c1")
6.62
>>> experimental_result("CC(C)(C)c1ccc(OCC(=O)N2CCC(c3nc4ccccc4s3)CC2)cc1")
-1.99
>>> experimental_result("C/C(=N/NC(=O)CN1CCN(S(=O)(=O)c2ccc(Br)cc2)CC1)c1ccncc1")
1.09
>>> experimental_result("COc1ccc(C(=O)N2CCC(c3nc4ccccc4o3)CC2)cc1")
6.96
>>> experimental_result("Cc1ccc(NC2=C(c3ccc(C(F)(F)F)cc3)C(=O)c3ccccc32)cc1F")
-15.7
>>> experimental_result("COc1cc(C2C3=C(CCCC3=O)OC3=C2C(=O)CCC3)ccc1OCC(=O)Nc1ccccc1")
78.2
>>> experimental_result("CC(C)(C)n1c(=O)[nH]c2c(c1=O)CCC2")
-6.6
>>> experimental_result("O=C(CNC(=O)c1ccc(Cl)cc1Cl)OC(C(=O)Nc1cc(C(F)(F)F)ccc1Cl)c1ccccc1 (configuration not stated)")
10.6
>>> experimental_result("CCCCOc1ccc(C(=O)Nc2cccc(-c3nc4ccccc4o3)c2C)cc1")
36
>>> experimental_result("COc1ccccc1-c1nnc(SCC(N)=O)o1")
0.976
>>> experimental_result("Cc1ccc2nc(CN3CCN(S(=O)(=O)c4ccc(C)c(C)c4)CC3)oc2c1")
0.582
>>> experimental_result("Cc1ccc(C(=O)Cn2cccn2)cc1")
-2.28
